System: iNOS (Mouse) (Mus musculus, UniProt P29477) | Read-out: IC50
Structures can show the parent of a compound that is named as a salt.
ENDPOINT: IC50

>>> observed_measurement("CN1CCC(C2C(=O)Nc3ccc(NC(=N)c4cccs4)cc32)CC1 (stereo not shown)")
"> 100 µM"
>>> observed_measurement("CNCCN1CCCc2cc(NC(=N)c3cccs3)ccc21.Cl.Cl [Example 30, dihydrochloride]")
"> 100 µM"
>>> observed_measurement("N=C(Nc1ccc2c(c1)CCCN2C1CCNC1)c1cccs1 (stereo not shown) [Example 29, dihydrochloride]")
"> 100 µM"
>>> observed_measurement("CN(C)CCN1C(=O)CCc2cc(NC(=N)c3cccs3)ccc21")
"> 100 µM"
